Measured IC50, listed per entry for reference.
- TEST TARGET: PI3K β (Homo sapiens, UniProt P42338)
- Construct: purchased Upstate
- Sequence (P42338 whole entry): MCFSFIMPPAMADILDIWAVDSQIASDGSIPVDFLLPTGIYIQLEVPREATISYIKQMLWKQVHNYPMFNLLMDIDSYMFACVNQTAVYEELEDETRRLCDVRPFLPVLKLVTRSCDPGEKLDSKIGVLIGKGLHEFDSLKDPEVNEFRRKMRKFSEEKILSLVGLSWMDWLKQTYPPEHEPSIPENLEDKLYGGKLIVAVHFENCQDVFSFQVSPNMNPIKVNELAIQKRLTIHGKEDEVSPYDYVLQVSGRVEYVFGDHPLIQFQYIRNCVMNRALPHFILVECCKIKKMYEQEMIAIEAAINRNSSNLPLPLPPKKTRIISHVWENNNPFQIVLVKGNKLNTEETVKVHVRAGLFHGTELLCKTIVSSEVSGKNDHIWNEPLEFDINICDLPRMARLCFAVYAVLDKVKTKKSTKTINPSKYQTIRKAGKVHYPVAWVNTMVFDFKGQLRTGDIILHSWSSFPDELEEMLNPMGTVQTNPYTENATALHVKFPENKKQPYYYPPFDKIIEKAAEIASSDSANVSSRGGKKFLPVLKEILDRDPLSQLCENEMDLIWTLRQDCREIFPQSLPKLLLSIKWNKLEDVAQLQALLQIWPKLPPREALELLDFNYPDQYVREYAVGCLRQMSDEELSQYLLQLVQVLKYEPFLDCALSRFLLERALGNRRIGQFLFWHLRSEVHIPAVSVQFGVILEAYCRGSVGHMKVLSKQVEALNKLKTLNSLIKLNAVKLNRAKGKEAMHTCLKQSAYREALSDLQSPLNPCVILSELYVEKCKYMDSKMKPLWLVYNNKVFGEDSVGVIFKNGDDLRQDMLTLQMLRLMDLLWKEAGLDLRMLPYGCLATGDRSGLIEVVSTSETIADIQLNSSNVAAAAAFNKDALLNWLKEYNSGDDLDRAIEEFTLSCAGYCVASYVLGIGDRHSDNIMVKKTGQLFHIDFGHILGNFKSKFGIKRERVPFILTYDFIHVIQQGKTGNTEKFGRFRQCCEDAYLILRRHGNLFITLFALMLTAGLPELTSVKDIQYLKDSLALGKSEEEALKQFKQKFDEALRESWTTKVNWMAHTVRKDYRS
- Sequence (P27986 whole entry partner): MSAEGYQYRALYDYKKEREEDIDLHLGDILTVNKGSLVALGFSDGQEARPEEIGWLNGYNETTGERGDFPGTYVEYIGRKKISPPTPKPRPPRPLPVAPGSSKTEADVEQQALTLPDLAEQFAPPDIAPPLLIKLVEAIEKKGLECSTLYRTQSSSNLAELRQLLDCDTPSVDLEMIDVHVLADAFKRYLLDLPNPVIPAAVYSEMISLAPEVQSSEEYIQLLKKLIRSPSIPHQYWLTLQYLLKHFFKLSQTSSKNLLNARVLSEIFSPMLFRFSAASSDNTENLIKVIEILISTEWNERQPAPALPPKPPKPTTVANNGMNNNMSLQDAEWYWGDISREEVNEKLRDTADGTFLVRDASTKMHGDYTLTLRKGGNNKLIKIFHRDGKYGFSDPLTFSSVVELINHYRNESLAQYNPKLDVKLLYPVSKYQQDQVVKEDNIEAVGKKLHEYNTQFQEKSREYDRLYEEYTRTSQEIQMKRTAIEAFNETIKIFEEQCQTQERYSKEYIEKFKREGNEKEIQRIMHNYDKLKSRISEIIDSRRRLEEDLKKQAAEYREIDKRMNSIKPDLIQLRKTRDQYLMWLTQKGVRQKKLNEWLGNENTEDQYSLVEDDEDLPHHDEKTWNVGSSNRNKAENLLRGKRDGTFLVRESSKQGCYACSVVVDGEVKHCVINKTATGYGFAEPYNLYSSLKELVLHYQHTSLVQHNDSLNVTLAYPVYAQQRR
- EXPERIMENTAL PROTOCOL: PI3K lipid kinase inhibition assay (TLC or HTRF), PI3K β
- Format: biochemical
- PROTOCOL CONDITIONS: In Vitro

| COMPOUND | IC50 |
| --- | --- |
| Cc1ccccc1-n1c(Cn2nc(I)c3c(N)ncnc32)cc2cccc(C)c2c1=O | > 10000 nM |
| Cc1cccc2cc(Cn3nc(-c4ccc5nc(N)oc5c4)c4c(N)ncnc43)n(-c3ccccc3)c(=O)c12 | < 10000 nM |
| Cc1cccc2cc(C(C)Nc3nc(Cl)ncc3N)n(-c3ccccc3)c(=O)c12 (stereo not shown) | > 10000 nM |
| Cc1ccccc1-n1c(Cn2nc(-c3cc(O)cc(F)c3)c3c(N)ncnc32)cc2cccc(C)c2c1=O | < 10000 nM |
